system: MDA-MB-231; test: In vitro inhibitory concentration against cell proliferation in human MDA-MB-231 (breast carcinoma) tumor cells; format: functional, cell-based
MEASUREMENT_TYPE: IC50 (nM)
Form entry: value (nM) — number only.

Entry "Cc1cc(C)c(C(=O)n2nc(Nc3ccc(S(N)(=O)=O)cc3)nc2N)s1" has what IC50? 170

---

molecular target: Casein kinase II (Homo sapiens, UniProt P19784+P67870+P68400); assay: Inhibition of Casein kinase-2
Sequence (P67870 whole entry): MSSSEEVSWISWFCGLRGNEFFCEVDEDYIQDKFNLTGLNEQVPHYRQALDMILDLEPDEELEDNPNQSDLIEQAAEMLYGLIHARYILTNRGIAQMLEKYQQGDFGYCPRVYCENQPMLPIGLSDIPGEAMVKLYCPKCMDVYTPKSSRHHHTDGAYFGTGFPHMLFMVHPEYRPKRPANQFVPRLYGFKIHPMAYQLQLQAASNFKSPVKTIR
Sequence (P68400 whole entry): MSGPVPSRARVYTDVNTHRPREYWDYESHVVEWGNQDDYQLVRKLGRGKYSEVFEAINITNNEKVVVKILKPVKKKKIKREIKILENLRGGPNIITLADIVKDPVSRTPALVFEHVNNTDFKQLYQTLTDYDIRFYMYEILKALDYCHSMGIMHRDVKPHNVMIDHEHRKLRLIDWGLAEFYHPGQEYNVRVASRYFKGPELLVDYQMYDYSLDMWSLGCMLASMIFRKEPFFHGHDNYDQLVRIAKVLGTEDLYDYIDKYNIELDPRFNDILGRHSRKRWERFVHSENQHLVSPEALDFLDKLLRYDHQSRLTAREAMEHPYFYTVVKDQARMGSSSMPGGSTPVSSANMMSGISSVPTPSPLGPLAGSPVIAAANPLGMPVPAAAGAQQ
Sequence (P19784 whole entry): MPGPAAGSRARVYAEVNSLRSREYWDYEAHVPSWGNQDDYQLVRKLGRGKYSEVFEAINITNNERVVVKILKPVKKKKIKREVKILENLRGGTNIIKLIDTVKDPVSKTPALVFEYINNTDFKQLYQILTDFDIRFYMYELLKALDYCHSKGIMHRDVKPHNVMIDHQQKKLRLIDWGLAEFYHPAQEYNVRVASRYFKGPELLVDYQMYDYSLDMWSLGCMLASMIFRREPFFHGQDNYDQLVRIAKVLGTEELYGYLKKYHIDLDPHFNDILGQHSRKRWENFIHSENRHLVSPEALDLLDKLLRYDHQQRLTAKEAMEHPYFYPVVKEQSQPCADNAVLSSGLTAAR
pIC50: −log10 of the molar value.
MEASUREMENT_TYPE: pIC50

Field: example entries. Status: answers known.
Cc1ccsc1C(=O)n1nc(Nc2ccc(S(N)(=O)=O)cc2)nc1N; < 4.00
Nc1nc(Nc2ccc(S(N)(=O)=O)cc2)nn1C(=S)Nc1c(F)cccc1F; < 4.00

Proceeding to the next compound to report its pIC50.
Entry "Cc1ccc(F)c(C(=O)n2nc(Nc3ccc(S(N)(=O)=O)cc3)nc2C)c1F" has what pIC50? < 4.00
